- Measured On: human B1R (Homo sapiens, UniProt P46663)
- Construct: expressed in transfected cells; host or cells: CHO K1 cells (Chinese Hamster Ovary), stably transfected
- Sequence (P46663 1-353): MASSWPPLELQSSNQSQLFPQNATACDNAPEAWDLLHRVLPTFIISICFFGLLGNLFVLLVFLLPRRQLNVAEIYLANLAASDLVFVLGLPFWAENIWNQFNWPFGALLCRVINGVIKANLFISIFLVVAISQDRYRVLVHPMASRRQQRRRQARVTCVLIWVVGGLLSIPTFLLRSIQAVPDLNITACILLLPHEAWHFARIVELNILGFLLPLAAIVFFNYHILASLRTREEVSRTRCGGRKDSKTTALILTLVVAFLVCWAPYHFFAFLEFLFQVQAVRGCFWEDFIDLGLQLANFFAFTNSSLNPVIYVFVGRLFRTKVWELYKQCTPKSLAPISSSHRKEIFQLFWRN
- Procedure Text: Functional assay at bradykinin receptor 1 (B1R): Ca2+ fluorescence (Fluo-4) in FLIPR/Novostar, antagonist mode
- Format: cell-based
- Settings: test substance 10 µM; CHO K1 cells stably transfected with human B1R gene (hB1R-Zellen); agonist Lys-Des-Arg9-Bradykinin at EC80; % inhibition relative to maximal achievable inhibition; read-out: % Inhibierung (human B1R) bei 10 µM
Quantity Measured: inhibition at 10 µM (%)

{"Compound": "COCCN1CCC(NC(=O)Cn2cc(CS(=O)(=O)c3c(C)cc(OC)cc3C)nn2)C(C)(C)C1 (centres unmarked)", "inhibition at 10 µM [%]": 100}

A: COc1cc(C)c(S(=O)(=O)Cc2noc(CC(=O)N(C)C3CCC(N4CCC(OC)CC4)CC3)n2)c(C)c1 (centres unmarked)
B: O=C(Cc1nc(CS(=O)(=O)c2cccc(Cl)c2Cl)no1)NC1CCNCC1
[ask] From the items above, decide which of A and B has the lower inhibition at 10 µM reading. Your answer should be the label attached to the chosen record.
[reply] B

###

- Measured On: human B1R (Homo sapiens, UniProt P46663)
- Construct: expressed in transfected cells; host or cells: CHO K1 cells (Chinese Hamster Ovary), stably transfected
- Procedure Text: Functional assay at bradykinin receptor 1 (B1R): Ca2+ fluorescence (Fluo-4) in FLIPR/Novostar, antagonist mode
- Format: cell-based
- Settings: test substance 10 µM; CHO K1 cells stably transfected with human B1R gene (hB1R-Zellen); agonist Lys-Des-Arg9-Bradykinin at EC80; % inhibition relative to maximal achievable inhibition; read-out: % Inhibierung (human B1R) bei 10 µM
Quantity Measured: inhibition at 10 µM (%)

The cases that follow already have their inhibition at 10 µM on record.
{"Molecule": "COc1cc(C)c(S(=O)(=O)Cc2noc(C(=O)N(C)C3CCN(c4ccnc(N(C)C)n4)CC3)n2)c(C)c1", "inhibition at 10 µM, %": 100}
{"Molecule": "O=C(Cc1nc(CS(=O)(=O)c2cccc(Cl)c2Cl)no1)NC1CCC(N2CCCC2)CC1 (centres unmarked)", "inhibition at 10 µM, %": 73}
{"Molecule": "COc1cc(C)c(S(=O)(=O)Cc2cn(CC(=O)NC3CCN(C(C)=O)CC3(C)C)nn2)c(C)c1 (centres unmarked)", "inhibition at 10 µM, %": 92}
{"Molecule": "Cc1cc(S(=O)(=O)Cc2noc(C(=O)N3CCC4(CCN(C)C4)C3)n2)c(C)cc1Cl (centres unmarked)", "inhibition at 10 µM, %": 99}
{"Molecule": "COc1cc(C)c(S(=O)(=O)Cc2nc(CC(=O)NC3CCC(c4ccncc4)CC3(C)C)no2)c(C)c1 (centres unmarked)", "inhibition at 10 µM, %": 99}

I: COc1cc(C)c(S(=O)(=O)Cc2noc(CC(=O)N3CCC(N4CCN(C)CC4)CC3)n2)c(C)c1
II: COc1cc(C)c(S(=O)(=O)Cc2cc(C)n(CC(=O)NC3CCN(C)CC3(C)C)n2)c(C)c1 (centres unmarked)
[ask] From the items above, decide which of I and II has the lower inhibition at 10 µM reading. Your answer should be the label attached to the chosen record.
[reply] II

###

- Measured On: human B1R (Homo sapiens)
- Construct: expressed in transfected cells; host or cells: CHO K1 cells (Chinese Hamster Ovary), stably transfected
- Procedure Text: Functional assay at bradykinin receptor 1 (B1R): Ca2+ fluorescence (Fluo-4) in FLIPR/Novostar, antagonist mode
- Assay type: cell-based
- Settings: test substance 10 µM; CHO K1 cells stably transfected with human B1R gene (hB1R-Zellen); agonist Lys-Des-Arg9-Bradykinin at EC80; % inhibition relative to maximal achievable inhibition; read-out: % Inhibierung (human B1R) bei 10 µM
Quantity Measured: inhibition at 10 µM (%)

{"Molecule": "COc1cc(C)c(S(=O)(=O)Cc2nc(CC(=O)NC3CCC(N4CCCC4)CC3)no2)c(C)c1 (stereo not shown)", "Unit Name": "%", "Recorded Measurement": 100}
{"Molecule": "COc1cc(C)c(S(=O)(=O)Cc2c(C)nn(CC(=O)NC3CCC(N4CCN(C)CC4)CC3(C)C)c2C)c(C)c1 (stereo not shown)", "Unit Name": "%", "Recorded Measurement": 100}
{"Molecule": "COc1cc(C)c(S(=O)(=O)Cc2noc(C(=O)N3CCN(Cc4ccc(OC)nc4)CC3)n2)c(C)c1", "Unit Name": "%", "Recorded Measurement": 100}
{"Molecule": "CC1(C)CC(N2CCCC2)CCC1NC(=O)Cc1nc(CS(=O)(=O)c2cccc(Cl)c2Cl)no1 (stereo not shown)", "Unit Name": "%", "Recorded Measurement": 82}
{"Molecule": "COc1cc(C)c(S(=O)(=O)Cc2cn(CC(=O)NC3CCN(C)CC3(C)C)nn2)c(C)c1 (stereo not shown)", "Unit Name": "%", "Recorded Measurement": 100}
{"Molecule": "COc1cc(C)c(S(=O)(=O)Cc2cn(CC(=O)NC3CCNCC3(C)C)nn2)c(C)c1 (stereo not shown)", "Unit Name": "%", "Recorded Measurement": 100}
{"Molecule": "COc1cc(C)c(S(=O)(=O)Cc2nc(C(=O)N(C)[C@H]3CCC[C@@H](N4CCN(C)CC4)C3)no2)c(C)c1", "Unit Name": "%", "Recorded Measurement": 100}
{"Molecule": "COc1cc(C)c(S(=O)(=O)Cc2noc(CC(=O)N3CCN(c4ccncc4)CC3)n2)c(C)c1", "Unit Name": "%", "Recorded Measurement": 100}
{"Molecule": "COc1cc(C)c(S(=O)(=O)Cc2nnc(CC(=O)NC3CCNCC3)o2)c(C)c1", "Unit Name": "%", "Recorded Measurement": 98}
{"Molecule": "COc1cc(C)c(S(=O)(=O)Cc2noc(CC(=O)N3CCC(c4ccncc4)CC3)n2)c(C)c1", "Unit Name": "%", "Recorded Measurement": 97}
{"Molecule": "COc1cc(C)c(S(=O)(=O)Cc2noc(CC(=O)N3[C@@H]4CC[C@H]3CC(Oc3ccncc3)C4)n2)c(C)c1 (stereo partly shown)", "Unit Name": "%", "Recorded Measurement": 98}
{"Molecule": "COc1cc(C)c(S(=O)(=O)Cc2c(C)nn(CC(=O)N(C)[C@H]3CCC[C@@H](N4CCN(C)CC4)C3)c2C)c(C)c1", "Unit Name": "%", "Recorded Measurement": 100}
{"Molecule": "Cc1cccc(Cl)c1S(=O)(=O)Cc1noc(CC(=O)NC2CCN(C)CC2(C)C)n1 (stereo not shown)", "Unit Name": "%", "Recorded Measurement": 100}
{"Molecule": "COc1cc(C)c(S(=O)(=O)Cc2noc(CC(=O)N3CCN(Cc4ccc(N5CCCC5)nc4)CC3)n2)c(C)c1", "Unit Name": "%", "Recorded Measurement": 100}
{"Molecule": "COc1cc(C)c(S(=O)(=O)Cc2cc(C)n(CC(=O)NC3CCC(N4CCN(C)CC4)CC3(C)C)n2)c(C)c1 (stereo not shown)", "Unit Name": "%", "Recorded Measurement": 99}
{"Molecule": "COc1cc(C)c(S(=O)(=O)Cc2c(C)nn(CC(=O)NC3CCNCC3)c2C)c(C)c1", "Unit Name": "%", "Recorded Measurement": 85}

###

- Measured On: human B1R (Homo sapiens)
- Construct: expressed in transfected cells; host or cells: CHO K1 cells (Chinese Hamster Ovary), stably transfected
- Procedure Text: Functional assay at bradykinin receptor 1 (B1R): Ca2+ fluorescence (Fluo-4) in FLIPR/Novostar, antagonist mode
- Type: cell-based
- Settings: test substance 10 µM; CHO K1 cells stably transfected with human B1R gene (hB1R-Zellen); agonist Lys-Des-Arg9-Bradykinin at EC80; % inhibition relative to maximal achievable inhibition; read-out: % Inhibierung (human B1R) bei 10 µM
Quantity Measured: inhibition at 10 µM (%)

{"Compound": "COc1cc(C)c(S(=O)(=O)Cc2nc(CC(=O)NC3CCC(N4CCCC4)CC3(C)C)no2)c(C)c1 (stereo not shown) [CC-26]", "Quantity Measured": "inhibition at 10 µM", "Recorded Measurement": 100}
{"Compound": "COc1cc(C)c(S(=O)(=O)Cc2noc(C(=O)N3CCC(Cc4ccncc4)CC3)n2)c(C)c1 [SC-08]", "Quantity Measured": "inhibition at 10 µM", "Recorded Measurement": 99}
{"Compound": "COc1cc(C)c(S(=O)(=O)Cc2noc(CC(=O)NC3CCC(N(C)C)CC3)n2)c(C)c1 (stereo not shown) [CC-05]", "Quantity Measured": "inhibition at 10 µM", "Recorded Measurement": 100}
{"Compound": "COCCN1CCC(NC(=O)Cc2noc(CS(=O)(=O)c3c(C)cc(OC)cc3C)n2)C(C)(C)C1 (stereo not shown) [CC-27]", "Quantity Measured": "inhibition at 10 µM", "Recorded Measurement": 100}

Origin of values: patent EP2857388A1
